target: ferroportin (Homo sapiens, UniProt Q9NP59); assay: FPN activity assay: ferroportin-GFP internalization/degradation in HEK293 cells; type: cell-based; set-up: expressed in transfected cells; details: ferroportin-GFP HEK293 cells, at least 18 hours; read-out: FPN IC50
Sequence (Q9NP59 whole entry): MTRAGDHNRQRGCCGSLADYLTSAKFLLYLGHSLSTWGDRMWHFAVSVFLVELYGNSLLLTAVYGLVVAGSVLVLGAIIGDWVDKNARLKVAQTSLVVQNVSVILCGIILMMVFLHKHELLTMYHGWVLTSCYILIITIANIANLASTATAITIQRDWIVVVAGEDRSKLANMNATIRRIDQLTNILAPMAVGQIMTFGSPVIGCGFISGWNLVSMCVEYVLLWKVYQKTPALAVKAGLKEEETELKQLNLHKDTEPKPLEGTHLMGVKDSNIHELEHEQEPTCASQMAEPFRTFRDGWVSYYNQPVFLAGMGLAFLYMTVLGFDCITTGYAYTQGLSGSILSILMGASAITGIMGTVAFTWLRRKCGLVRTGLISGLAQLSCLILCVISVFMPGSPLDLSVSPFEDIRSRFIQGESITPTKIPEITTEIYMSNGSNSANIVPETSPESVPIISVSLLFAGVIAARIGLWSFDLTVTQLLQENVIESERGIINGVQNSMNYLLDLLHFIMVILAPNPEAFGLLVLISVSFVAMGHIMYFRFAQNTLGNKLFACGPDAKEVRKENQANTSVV
Starred links: 1 amine or outer side, 2 acyl side, 3 side chain; linkers in the order of their positions; H or OH if unused. Positions of bridges follow the written chain, without caps; N, C: chain ends. Non-standard residues stand in square brackets, D forms with d. Residues, ends and D or L forms follow the SMILES beside them. Groups on a side chain read outwards from the residue. *: point of attachment. C18 diacid = O=C(O)CCCCCCCCCCCCCCCCC(=O)*; Dip = N[C@H](C(=O)O)C(c1ccccc1)c1ccccc1; γGlu = O=C(O)[C@H](CCC(=O)[*:2])N[*:1]; Palmitoyl = CCCCCCCCCCCCCCCC(=O)*; β3hF = N[C@H](CC(=O)O)Cc1ccccc1; Pen = CC(C)(S)[C@H](N)C(=O)O; Isovaleryl = CC(C)CC(=O)*; hCys = N[C@@H](CCS)C(=O)O; AEEA = NCCOCCOCC(=O)O; Ahx = NCCCCCC(=O)O
# DC50 values compiled below

- Compound: "CCCCCCCCCCCCCCCC(=O)NCCCCCC(=O)NCCCC[C@H](NC(=O)C[C@H](Cc1ccccc1)NC(=O)[C@H]1NC(=O)[C@H]([C@@H](C)CC)NC(=O)[C@H](C)NC(=O)[C@@H]2CCCN2C(=O)[C@H](C(c2ccccc2)c2ccccc2)NC(=O)[C@H](Cc2c[nH]cn2)NC(=O)[C@H]([C@@H](C)O)NC(=O)[C@@H](NC(=O)CC(C)C)CCSSC1(C)C)C(=O)N[C@H](CCCCN)C(N)=O [compound 109] (Isovaleryl-[hCys]TH[Dip]PAI[Pen][β3hF]K([Ahx-Palmitoyl])[dK]-NH2; disulfide 1-8)"
  Tgt: "ferroportin (Homo sapiens, UniProt Q9NP59)"
  DC50: "10 to 100 nM"
- Compound: "CCCCCCCCCCCCCCCC(=O)NCCCCCC(=O)NCCCC[C@H](NC(=O)[C@@H](NC(=O)[C@@H]1CSSC(C)(C)[C@H](N)C(=O)N[C@@H](CCC(=O)O)C(=O)N[C@@H]([C@@H](C)O)C(=O)N[C@@H](Cc2c[nH]cn2)C(=O)N[C@@H](C(c2ccccc2)c2ccccc2)C(=O)N2CCC[C@H]2C(=O)N1)[C@@H](C)CC)C(=O)N[C@H](CC(N)=O)Cc1ccccc1 [Compd 11] (H-[Pen]ETH[Dip]PCIK([Ahx-Palmitoyl])[β3hF]-NH2; disulfide 1-7)"
  Tgt: "ferroportin (Homo sapiens, UniProt Q9NP59)"
  DC50: "> 500 nM"
- Compound: "CCCCCCCCCCCCCCCC(=O)NCCCCCC(=O)NCCCC[C@H](NC(=O)C[C@H](Cc1ccccc1)NC(=O)[C@@H](CCCCN)NC(=O)[C@@H](NC(=O)[C@@H]1CSSC[C@H](NC(=O)[C@@H](NC(=O)[C@H](CCC(=O)O)NC(=O)CC(C)C)[C@@H](C)O)C(=O)N[C@@H](C(c2ccccc2)c2ccccc2)C(=O)N2CCC[C@H]2C(=O)N1)[C@@H](C)CC)C(=O)N[C@H](CCCCN)C(N)=O [Compd ID 2] (Isovaleryl-ETC[Dip]PCI[dK][β3hF]K([Ahx-Palmitoyl])[dK]-NH2; disulfide 3-6)"
  Tgt: "ferroportin (Homo sapiens, UniProt Q9NP59)"
  DC50: "100 to 500 nM"
- Compound: "CCCCCCCCCCCCCCCC(=O)NCCCCCC(=O)NCCCC[C@H](NC(=O)C[C@H](Cc1ccccc1)NC(=O)[C@@H](CCCCN)NC(=O)[C@@H]1CSSC[C@H](NC(=O)[C@@H]2CCCN2C(=O)[C@@H](NC(=O)[C@H](Cc2c[nH]cn2)NC(=O)[C@@H](NC(=O)[C@H](CCC(=O)O)NC(=O)CC(C)C)[C@@H](C)O)C(c2ccccc2)c2ccccc2)C(=O)N1)C(=O)N[C@H](CCCCN)C(N)=O [Compd 6] (Isovaleryl-ETH[Dip]PCC[dK][β3hF]K([Ahx-Palmitoyl])[dK]-NH2; disulfide 6-7)"
  Tgt: "ferroportin (Homo sapiens, UniProt Q9NP59)"
  DC50: "10 to 100 nM"
- Compound: "CCCCCCCCCCCCCCCC(=O)NCCCCCC(=O)NCCCC[C@H](NC(=O)[C@@H](NC(=O)[C@@H]1CCSSCC[C@H](N)C(=O)N[C@@H](C(C)C)C(=O)N[C@@H](CCC(=O)O)C(=O)N[C@@H]([C@@H](C)O)C(=O)N[C@@H](Cc2c[nH]cn2)C(=O)N[C@@H](C(c2ccccc2)c2ccccc2)C(=O)N2CCC[C@H]2C(=O)N1)[C@@H](C)CC)C(=O)N[C@H](CC(N)=O)Cc1ccccc1 [Compd 16] (H-[hCys]VETH[Dip]P[hCys]IK([Ahx-Palmitoyl])[β3hF]-NH2; disulfide 1-8)"
  Tgt: "ferroportin (Homo sapiens, UniProt Q9NP59)"
  DC50: "> 500 nM"
- Compound: "CCCCCCCCCCCCCCCC(=O)NCCCCCC(=O)NCCCC[C@H](NC(=O)C[C@H](Cc1ccccc1)NC(=O)[C@@H]1CSSC[C@@H](NC(=O)CC(C)C)C(=O)N[C@@H]([C@@H](C)O)C(=O)N[C@@H](Cc2c[nH]cn2)C(=O)N[C@@H](C(c2ccccc2)c2ccccc2)C(=O)N2CCC[C@H]2C(=O)N[C@@H](C)C(=O)N[C@@H]([C@@H](C)CC)C(=O)N1)C(=O)N[C@H](CCCCN)C(N)=O [compound 107] (Isovaleryl-[dC]TH[Dip]PAIC[β3hF]K([Ahx-Palmitoyl])[dK]-NH2; disulfide 1-8)"
  Tgt: "ferroportin (Homo sapiens, UniProt Q9NP59)"
  DC50: "10 to 100 nM"
- Compound: "CC[C@H](C)[C@H](NC(=O)[C@@H]1CSSC[C@H](NC(=O)[C@@H](NC(=O)[C@H](Cc2c[nH]cn2)NC(=O)[C@@H](NC(=O)[C@H](CCC(=O)O)NC(=O)CC(C)C)[C@@H](C)O)C(c2ccccc2)c2ccccc2)C(=O)N1)C(=O)N[C@@H](CCCCNC(=O)COCCOCCNC(=O)COCCOCCNC(=O)CC[C@H](NC(=O)CCCCCCCCCCCCCCCCC(=O)O)C(=O)O)C(=O)N[C@H](CC(=O)N[C@H](CCCCN)C(N)=O)Cc1ccccc1 [Compd 30] (Isovaleryl-ETH[Dip]CCIK([AEEA-AEEA-γGlu-C18 diacid])[β3hF][dK]-NH2; disulfide 5-6)"
  Tgt: "ferroportin (Homo sapiens, UniProt Q9NP59)"
  DC50: "10 to 100 nM"
- Compound: "CC(C)CC(=O)N[C@@H](CCC(=O)O)C(=O)N[C@H](C(=O)N[C@@H](Cc1c[nH]cn1)C(=O)N[C@H](C(=O)N1CCC[C@H]1C(=O)N[C@H]1CSSC[C@@H](C(=O)N[C@@H](CCCCNC(=O)COCCOCCNC(=O)COCCOCCNC(=O)CC[C@H](NC(=O)CCCCCCCCCCCCCCCCC(=O)O)C(=O)O)C(=O)N[C@H](CC(=O)N[C@H](CCCCN)C(N)=O)Cc2ccccc2)NC1=O)C(c1ccccc1)c1ccccc1)[C@@H](C)O [Compd ID 31] (Isovaleryl-ETH[Dip]PCCK([AEEA-AEEA-γGlu-C18 diacid])[β3hF][dK]-NH2; disulfide 6-7)"
  Tgt: "ferroportin (Homo sapiens, UniProt Q9NP59)"
  DC50: "10 to 100 nM"
